Recorded BRET β-Arrestin2 High AT1R Expression Ymax (%) for the following compounds
tested.system: hAT1R (Homo sapiens)
Sequence (P30556 whole entry): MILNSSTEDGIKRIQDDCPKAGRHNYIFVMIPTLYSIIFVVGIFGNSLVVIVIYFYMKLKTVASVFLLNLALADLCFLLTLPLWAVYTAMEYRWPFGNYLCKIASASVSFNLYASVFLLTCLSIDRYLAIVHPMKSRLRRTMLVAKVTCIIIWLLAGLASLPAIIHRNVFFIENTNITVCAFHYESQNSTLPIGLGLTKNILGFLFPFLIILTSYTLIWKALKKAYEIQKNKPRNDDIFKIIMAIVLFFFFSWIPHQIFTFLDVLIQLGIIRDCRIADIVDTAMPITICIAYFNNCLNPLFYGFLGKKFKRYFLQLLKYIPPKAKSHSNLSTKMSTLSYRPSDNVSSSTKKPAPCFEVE
assay.method.text: BRET β-arrestin2 biosensor assay, higher receptor expression (hAT1R 5 ng/well), HEK293 cells
Assay type: cell-based
Give the quantity in %, number only.

// worked examples, BRET β-Arrestin2 High AT1R Expression Ymax (%) included
INSERT INTO assay_data (compound, tested_system, recorded_value) VALUES
  ('CCCCc1ncc(C(=O)NCCC2CC2)n1Cc1ccc(-c2cc(-c3ccccc3)ccc2-c2nn[nH]n2)cc1 [Example 357]', 'hAT1R (Homo sapiens)', 72.5),
  ('CCOc1nc2cccc(C(=O)O)c2n1Cc1ccc(-c2cc(-c3cccc(C)c3)ccc2C(=O)O)cc1 [Example 313]', 'hAT1R (Homo sapiens)', 92.9),
  ('CCc1nc2c(C)cc(C)nc2n1Cc1ccc(-c2cc(-c3ccc(CO)cc3)ccc2-c2nnn[nH]2)cn1 [Example 180]', 'hAT1R (Homo sapiens)', 85.3),
  ('CCc1nc2c(C)cc(C)nc2n1Cc1ccc(-c2cc(C3CCCO3)ccc2-c2nn[nH]n2)cc1 (single isomer, unassigned) [Example 74]', 'hAT1R (Homo sapiens)', 3.2),
  ('CCCCc1ncc(C(=O)NCc2cnccn2)n1Cc1ccc(-c2cc(-c3ccccc3)ccc2-c2nn[nH]n2)cc1 [Example 359]', 'hAT1R (Homo sapiens)', 90.8);

Look up BRET β-Arrestin2 High AT1R Expression Ymax (%) with hAT1R (Homo sapiens) for this compound: CCc1nc2c(C)cc(C)nc2n1Cc1ccc(-c2cc(Oc3ncccc3Cl)ccc2-c2nn[nH]n2)cc1 [Example 255]
80.2

Look up BRET β-Arrestin2 High AT1R Expression Ymax (%) with hAT1R (Homo sapiens) for this compound: CCc1nc2c(C)cc(C)nc2n1Cc1ccc(-c2cc(-c3ccccc3)ccc2OCC(=O)O)cc1 [Example 69]
10.3

Look up BRET β-Arrestin2 High AT1R Expression Ymax (%) with hAT1R (Homo sapiens) for this compound: CCCCC1=NC2(CCCC2)C(=O)N1Cc1ccc(-c2cc(Oc3ccccc3)ccc2-c2nnn[nH]2)cc1 [Example 454]
18.4

Look up BRET β-Arrestin2 High AT1R Expression Ymax (%) with hAT1R (Homo sapiens) for this compound: CCCCc1ncc(C(=O)NCC2CC2)n1Cc1ccc(-c2cc(-c3ccccc3)ccc2-c2nn[nH]n2)cc1 [Example 365]
82.7

Look up BRET β-Arrestin2 High AT1R Expression Ymax (%) with hAT1R (Homo sapiens) for this compound: CCc1nc2c(C)cc(C)nc2n1Cc1ccc(-c2cc(-c3cccn3C)ccc2-c2nn[nH]n2)cc1 [Example 22]
57.1

Look up BRET β-Arrestin2 High AT1R Expression Ymax (%) with hAT1R (Homo sapiens) for this compound: CCCCC(=O)N(Cc1ccc(-c2cc(N3CCCC(C)C3)ccc2-c2nn[nH]n2)cc1)[C@H](C(=O)O)C(C)C (stereo partly shown) [Example 448]
58.5

Look up BRET β-Arrestin2 High AT1R Expression Ymax (%) with hAT1R (Homo sapiens) for this compound: CCCCC(=O)N(Cc1ccc(-c2cc(Oc3cccc(OC(F)(F)F)c3)ccc2-c2nn[nH]n2)cc1)[C@H](C(=O)O)C(C)C [Example 437]
16.4

Look up BRET β-Arrestin2 High AT1R Expression Ymax (%) with hAT1R (Homo sapiens) for this compound: CCCCc1ncc(C(=O)Nc2nc(C)cs2)n1Cc1ccc(-c2cc(-c3ccccc3)ccc2-c2nn[nH]n2)cc1 [Example 349]
67.6
